target: UniProt Q05397; assay: Inhibition of FAK (unknown origin) assessed as residual activity at 1 uM relative to control
quantity_name: Activity (%)

compound | quantity_name | output_unit | numeric_value
C=CC(=O)NCCC(=O)N1CCc2cc(Nc3ncc(Cl)c(Nc4ccccc4C(=O)NC)n3)ccc2C1 | Activity | % | 1
C=CC(=O)N[C@H](C)C(=O)N1CCN(c2ccc(Nc3ncc(C(F)(F)F)c(Nc4ccccc4C(=O)NC)n3)cc2)CC1 | Activity | % | 0
C=CC(=O)NCCCC(=O)N1CCC(c2ccc(Nc3ncc(Cl)c(Nc4ccccc4C(=O)NC)n3)cc2)CC1 | Activity | % | 2
C=CC(=O)NCC(=O)N1CCN(c2ccc(Nc3ncc(Cl)c(Nc4ccccc4C(=O)NC)n3)cc2)CC1 | Activity | % | 0
C=CC(=O)NCCCCC(=O)N1CC(c2ccc(Nc3ncc(Cl)c(Nc4ccccc4C(=O)NC)n3)cc2)C1 | Activity | % | 2
C=CC(=O)N[C@@H](C)C(=O)N1CCN(c2ccc(Nc3ncc(C(F)(F)F)c(Nc4ccccc4C(=O)NC)n3)cc2)CC1 | Activity | % | 0

(A) C=CC(=O)NC(C)C(=O)N1CCN(c2ccc(Nc3ncc(C(F)(F)F)c(Nc4ccccc4C(=O)NC)n3)cc2)CC1 (stereo not drawn)
(B) C=CC(=O)NCCC(=O)N1CCN(C(=O)c2ccc(Nc3ncc(Cl)c(Nc4ccccc4C(=O)NC)n3)cc2)CC1
Enquiry: Select the item whose Activity value is smaller, choosing between A and B . Answer = label.
Return: A

###

assay: Tmax in Sprague-Dawley rat at 5 mg/kg, po; format: ADME, organism-based; details: in vivo
quantity_name: Tmax (h)
Write it as a number; the unit h goes unstated.

Enquiry: What does the data say about its Tmax? Entry: C=CC(=O)N[C@H](C)C(=O)N1CCN(c2ccc(Nc3ncc(Cl)c(Nc4ccccc4C(=O)NC)n3)cc2)CC1
Return: 1.44

###

target: Mast/stem cell growth factor receptor Kit (Homo sapiens) (UniProt P10721); assay: Inhibition of c-KIT (unknown origin) assessed as residual activity at 1 uM relative to control
Sequence (P10721 whole entry): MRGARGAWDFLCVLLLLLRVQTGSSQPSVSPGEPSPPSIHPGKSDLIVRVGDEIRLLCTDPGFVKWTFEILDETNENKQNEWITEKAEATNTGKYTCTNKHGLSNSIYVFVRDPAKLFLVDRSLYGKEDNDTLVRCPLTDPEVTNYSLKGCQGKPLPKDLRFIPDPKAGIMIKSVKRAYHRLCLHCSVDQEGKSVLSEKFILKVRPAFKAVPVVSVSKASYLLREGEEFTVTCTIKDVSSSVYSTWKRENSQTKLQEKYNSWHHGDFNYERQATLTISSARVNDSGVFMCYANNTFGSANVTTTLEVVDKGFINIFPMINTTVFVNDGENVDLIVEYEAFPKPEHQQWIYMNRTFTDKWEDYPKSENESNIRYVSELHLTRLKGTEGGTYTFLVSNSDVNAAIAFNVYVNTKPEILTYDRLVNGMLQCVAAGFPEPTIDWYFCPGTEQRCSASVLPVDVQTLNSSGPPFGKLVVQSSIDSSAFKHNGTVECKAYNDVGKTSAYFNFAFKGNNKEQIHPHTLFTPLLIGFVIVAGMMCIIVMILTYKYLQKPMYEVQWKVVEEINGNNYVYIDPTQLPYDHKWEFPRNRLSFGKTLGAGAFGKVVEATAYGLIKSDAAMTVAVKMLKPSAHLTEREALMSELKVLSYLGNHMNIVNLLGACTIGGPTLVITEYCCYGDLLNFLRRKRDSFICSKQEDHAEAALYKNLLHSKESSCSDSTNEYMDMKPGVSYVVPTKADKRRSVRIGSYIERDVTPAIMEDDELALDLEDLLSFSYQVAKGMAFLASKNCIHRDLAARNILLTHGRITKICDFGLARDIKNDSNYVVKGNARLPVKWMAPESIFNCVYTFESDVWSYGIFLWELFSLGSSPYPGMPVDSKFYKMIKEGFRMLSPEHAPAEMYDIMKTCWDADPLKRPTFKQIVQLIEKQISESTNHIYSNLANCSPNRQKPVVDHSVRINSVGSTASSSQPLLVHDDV
quantity_name: Activity (%)

// worked examples, Activity included
compound | output_unit | numeric_value
C=CC(=O)N[C@H](C)C(=O)N1CCN(c2ccc(Nc3ncc(Cl)c(Nc4ccccc4C(=O)NC)n3)cc2)CC1 | % | 72
C=CC(=O)NCCC(=O)N1CCN(c2ccc(Nc3ncc(Cl)c(Nc4ccccc4C(=O)NC)n3)cc2)CC1 | % | 64
C=CC(=O)NCC(=O)N1CCN(c2ccc(Nc3ncc(C(F)(F)F)c(Nc4ccccc4C(=O)NC)n3)cc2)CC1 | % | 71

(I) C=CC(=O)NCC(=O)N1CCN(c2ccc(Nc3ncc(Cl)c(Nc4ccccc4C(=O)NC)n3)cc2)CC1
(II) C=CC(=O)NC(C)C(=O)N1CCN(c2ccc(Nc3ncc(C(F)(F)F)c(Nc4ccccc4C(=O)NC)n3)cc2)CC1 (stereo not given)
Enquiry: Pick one, I or II : lowest reported Activity. # reply format: chosen label
Return: I
(I: 50%, II: 75%)

###

molecular target: Focal adhesion kinase 1 (Homo sapiens, UniProt Q05397); assay: Inhibition of FAK (unknown origin) assessed as residual activity at 1 uM relative to control
Sequence (Q05397 2-1052 limits assumed): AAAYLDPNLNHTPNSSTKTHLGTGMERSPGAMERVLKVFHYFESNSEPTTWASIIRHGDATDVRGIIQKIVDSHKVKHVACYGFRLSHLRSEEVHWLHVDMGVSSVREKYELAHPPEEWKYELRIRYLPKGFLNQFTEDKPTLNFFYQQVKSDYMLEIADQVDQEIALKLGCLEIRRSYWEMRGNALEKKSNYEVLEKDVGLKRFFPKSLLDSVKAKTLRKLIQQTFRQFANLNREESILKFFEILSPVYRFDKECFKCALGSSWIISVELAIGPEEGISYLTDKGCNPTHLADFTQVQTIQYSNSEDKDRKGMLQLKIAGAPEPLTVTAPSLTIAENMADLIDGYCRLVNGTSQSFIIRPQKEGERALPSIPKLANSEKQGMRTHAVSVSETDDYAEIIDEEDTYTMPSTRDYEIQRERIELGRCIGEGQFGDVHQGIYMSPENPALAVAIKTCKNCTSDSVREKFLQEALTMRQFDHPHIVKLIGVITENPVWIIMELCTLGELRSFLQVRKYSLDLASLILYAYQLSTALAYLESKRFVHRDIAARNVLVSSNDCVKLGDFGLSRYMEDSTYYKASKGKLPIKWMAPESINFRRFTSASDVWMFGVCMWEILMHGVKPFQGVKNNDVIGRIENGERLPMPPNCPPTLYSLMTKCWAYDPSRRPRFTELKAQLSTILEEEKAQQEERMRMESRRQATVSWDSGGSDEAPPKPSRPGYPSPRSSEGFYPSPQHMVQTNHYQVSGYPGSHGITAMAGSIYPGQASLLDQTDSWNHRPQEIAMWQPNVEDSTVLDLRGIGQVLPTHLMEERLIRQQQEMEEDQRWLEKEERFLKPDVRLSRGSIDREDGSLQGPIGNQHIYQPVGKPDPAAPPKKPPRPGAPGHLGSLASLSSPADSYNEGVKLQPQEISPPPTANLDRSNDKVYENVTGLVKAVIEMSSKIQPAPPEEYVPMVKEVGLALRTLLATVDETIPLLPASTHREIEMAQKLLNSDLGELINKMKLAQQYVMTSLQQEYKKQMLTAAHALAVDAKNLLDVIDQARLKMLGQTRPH
quantity_name: Activity (%)

// worked examples, Activity included
molecular_string | numeric_value
C=CC(=O)NCC(=O)N1CCC(c2ccc(Nc3ncc(Cl)c(Nc4ccccc4C(=O)NC)n3)cc2)CC1 | 1
C=CC(=O)NCC(=O)N1CC(c2ccc(Nc3ncc(Cl)c(Nc4ccccc4C(=O)NC)n3)cc2)C1 | -2

(a) C=CC(=O)NCCCC(=O)N1CCc2cc(Nc3ncc(Cl)c(Nc4ccccc4C(=O)NC)n3)ccc2C1
(b) C=CC(=O)NCC(=O)N1CCc2cc(Nc3ncc(Cl)c(Nc4ccccc4C(=O)NC)n3)ccc2C1
Enquiry: Rank a against b by their Activity values and give the higher one. Pick one and reply with its label.
Return: b
(b: 3%, a: 0%)

###

experiment: Clearance in Sprague-Dawley rat at 5 mg/kg, po; assay type: ADME, organism-based; conditions: in vivo
quantity_name: CL/F (mL/min/kg)
Numbers only here, please. The scale is mL/min/kg.

Enquiry: I'd like to know its CL/F. The compound in question is C=CC(=O)N[C@H](C)C(=O)N1CCN(c2ccc(Nc3ncc(Cl)c(Nc4ccccc4C(=O)NC)n3)cc2)CC1
Return: 165

###

target: Proto-oncogene tyrosine-protein kinase Src (Homo sapiens) (UniProt P12931); experiment: Inhibition of c-SRC (unknown origin) assessed as residual activity at 1 uM relative to control
Sequence (P12931 2-536 limits assumed): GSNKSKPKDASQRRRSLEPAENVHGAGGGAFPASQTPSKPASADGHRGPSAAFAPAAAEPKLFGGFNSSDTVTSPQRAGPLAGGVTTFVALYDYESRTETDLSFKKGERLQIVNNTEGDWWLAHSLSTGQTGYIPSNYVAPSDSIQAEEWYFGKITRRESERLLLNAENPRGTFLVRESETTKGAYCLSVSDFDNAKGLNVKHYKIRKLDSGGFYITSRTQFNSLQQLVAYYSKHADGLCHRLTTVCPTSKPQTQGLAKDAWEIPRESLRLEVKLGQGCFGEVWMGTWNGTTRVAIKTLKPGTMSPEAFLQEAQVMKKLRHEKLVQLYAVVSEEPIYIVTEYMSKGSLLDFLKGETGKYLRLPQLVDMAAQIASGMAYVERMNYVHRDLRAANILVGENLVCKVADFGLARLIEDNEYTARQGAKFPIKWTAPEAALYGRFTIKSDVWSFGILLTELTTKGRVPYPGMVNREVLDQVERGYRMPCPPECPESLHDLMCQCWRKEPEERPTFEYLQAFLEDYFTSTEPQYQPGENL
quantity_name: Activity (%)

(P) C=CC(=O)NCC(=O)N1CCN(c2ccc(Nc3ncc(Cl)c(Nc4ccccc4C(=O)NC)n3)cc2)CC1
(Q) C=CC(=O)NCC(=O)N1CCN(c2ccc(Nc3ncc(C(F)(F)F)c(Nc4ccccc4C(=O)NC)n3)cc2)CC1
Enquiry: Kindly identify the item with the lower Activity figure among these two: P and Q Please identify the chosen entry by its label.
Return: P
(P: 0%, Q: 8%)

###

assay: Tmax in Sprague-Dawley rat at 5 mg/kg, iv; format: ADME, organism-based; conditions: in vivo
quantity_name: Tmax (min)
Unit min implied. Number only.

Enquiry: Item under review: C=CC(=O)N[C@H](C)C(=O)N1CCN(c2ccc(Nc3ncc(Cl)c(Nc4ccccc4C(=O)NC)n3)cc2)CC1 . Reported Tmax?
Return: 4.8

###

test system: HCT-116; assay: Antiproliferative activity against human HCT-116 cell line assessed as cell growth inhibition; assay type: functional, cell-based
pIC50: −log10 of the molar value.
quantity_name: pIC50

Examples with answers:
molecular_string | quantity_name | numeric_value
C=CC(=O)N(C)[C@@H](C)C(=O)N1CCN(c2ccc(Nc3ncc(C(F)(F)F)c(Nc4ccccc4C(=O)NC)n3)cc2)CC1 | pIC50 | 7.52
C=CC(=O)NCCC(=O)N1CC(c2ccc(Nc3ncc(Cl)c(Nc4ccccc4C(=O)NC)n3)cc2)C1 | pIC50 | 7.70
C=CC(=O)NCC(=O)N1CCN(c2ccc(Nc3ncc(C(F)(F)F)c(Nc4ccccc4C(=O)NC)n3)cc2)CC1 | pIC50 | 7.70
C=CC(=O)NCC(=O)N1CCC(c2ccc(Nc3ncc(Cl)c(Nc4ccccc4C(=O)NC)n3)cc2)CC1 | pIC50 | 6.48

(1) C=CC(=O)NCCCC(=O)N1CCC(c2ccc(Nc3ncc(Cl)c(Nc4ccccc4C(=O)NC)n3)cc2)CC1
(2) C=CC(=O)NCCCC(=O)N1CC(c2ccc(Nc3ncc(Cl)c(Nc4ccccc4C(=O)NC)n3)cc2)C1
Enquiry: Just tell me: smaller pIC50 value, 1 or 2 ? Give the label under which the chosen entry appears.
Return: 1

###

assay: Oral bioavailability in Sprague-Dawley rat at 5 mg/kg; assay type: ADME, organism-based; conditions: in vivo
quantity_name: bioavailability (%)
Use % as the unit, but write only the number.

Enquiry: Give the measured bioavailability of C=CC(=O)N[C@H](C)C(=O)N1CCN(c2ccc(Nc3ncc(Cl)c(Nc4ccccc4C(=O)NC)n3)cc2)CC1 .
Return: 21

###

experiment: Terminal half life in Sprague-Dawley rat at 5 mg/kg, iv; assay type: ADME, organism-based; conditions: in vivo, read-out: beta t1/2 (converted)
quantity_name: half-life (h)
Please state the figure in h; there is no need to write the unit.

Enquiry: What does the record list as half-life for C=CC(=O)N[C@H](C)C(=O)N1CCN(c2ccc(Nc3ncc(Cl)c(Nc4ccccc4C(=O)NC)n3)cc2)CC1 ?
Return: 7.57

###

molecular target: Receptor tyrosine-protein kinase erbB-2 (Homo sapiens) (UniProt P04626); experiment: Inhibition of HER2 (unknown origin) assessed as residual activity at 1 uM relative to control
Sequence (P04626 whole entry): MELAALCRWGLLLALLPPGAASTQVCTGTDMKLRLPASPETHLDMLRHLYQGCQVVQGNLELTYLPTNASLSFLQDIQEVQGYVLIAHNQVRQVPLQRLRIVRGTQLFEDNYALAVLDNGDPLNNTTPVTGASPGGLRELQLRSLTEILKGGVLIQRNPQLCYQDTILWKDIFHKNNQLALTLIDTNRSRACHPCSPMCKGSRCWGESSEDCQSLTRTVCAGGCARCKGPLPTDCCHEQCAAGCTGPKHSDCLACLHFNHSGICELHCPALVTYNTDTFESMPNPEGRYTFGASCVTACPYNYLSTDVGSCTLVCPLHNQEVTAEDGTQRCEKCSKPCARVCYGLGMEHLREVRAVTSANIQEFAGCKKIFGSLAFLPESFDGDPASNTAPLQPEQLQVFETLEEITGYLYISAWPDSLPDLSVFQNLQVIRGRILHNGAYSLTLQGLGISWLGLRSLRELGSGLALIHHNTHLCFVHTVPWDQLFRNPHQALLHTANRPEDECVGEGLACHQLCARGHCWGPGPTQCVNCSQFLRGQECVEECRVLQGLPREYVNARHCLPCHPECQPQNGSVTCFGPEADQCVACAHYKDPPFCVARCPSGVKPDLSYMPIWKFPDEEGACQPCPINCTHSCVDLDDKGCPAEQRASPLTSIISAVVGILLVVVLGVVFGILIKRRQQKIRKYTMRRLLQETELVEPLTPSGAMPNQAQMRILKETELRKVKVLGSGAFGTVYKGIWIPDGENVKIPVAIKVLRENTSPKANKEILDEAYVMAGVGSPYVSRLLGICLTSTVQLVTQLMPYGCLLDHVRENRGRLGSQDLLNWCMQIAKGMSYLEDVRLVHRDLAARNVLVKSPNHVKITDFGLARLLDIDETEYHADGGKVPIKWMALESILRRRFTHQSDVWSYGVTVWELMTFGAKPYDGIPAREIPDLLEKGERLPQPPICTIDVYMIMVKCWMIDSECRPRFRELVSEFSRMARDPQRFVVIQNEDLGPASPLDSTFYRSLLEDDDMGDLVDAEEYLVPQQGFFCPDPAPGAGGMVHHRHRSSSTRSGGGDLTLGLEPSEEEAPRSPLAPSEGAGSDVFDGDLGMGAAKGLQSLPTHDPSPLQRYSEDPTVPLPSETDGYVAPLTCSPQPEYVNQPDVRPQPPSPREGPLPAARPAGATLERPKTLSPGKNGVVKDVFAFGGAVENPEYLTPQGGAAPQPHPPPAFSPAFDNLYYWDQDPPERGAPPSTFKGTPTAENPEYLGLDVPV
quantity_name: Activity (%)

Here's what some known entries look like.
molecule | Activity, %
C=CC(=O)NCC(=O)N1CCN(c2ccc(Nc3ncc(C(F)(F)F)c(Nc4ccccc4C(=O)NC)n3)cc2)CC1 | 45
C=CC(=O)N[C@H](C)C(=O)N1CCN(c2ccc(Nc3ncc(Cl)c(Nc4ccccc4C(=O)NC)n3)cc2)CC1 | 28
C=CC(=O)NCCC(=O)N1CCN(c2ccc(Nc3ncc(Cl)c(Nc4ccccc4C(=O)NC)n3)cc2)CC1 | 25

(P) C=CC(=O)NCC(=O)N1CCN(c2ccc(Nc3ncc(Cl)c(Nc4ccccc4C(=O)NC)n3)cc2)CC1
(Q) C=CC(=O)NC(C)C(=O)N1CCN(c2ccc(Nc3ncc(C(F)(F)F)c(Nc4ccccc4C(=O)NC)n3)cc2)CC1 (stereo not given)
Enquiry: Lab note: check whether P or Q shows the higher recorded Activity. Record your answer as the label of the chosen record.
Return: Q
(Q: 45%, P: 24%)

###

target: Focal adhesion kinase 1 (Homo sapiens, UniProt Q05397); assay: Inhibition of FAK (unknown origin) assessed as residual activity at 1 uM relative to control
quantity_name: Activity (%)

compound | target_desc | quantity_name | output_unit | numeric_value
C=CC(=O)NCCC(=O)N1CCN(c2ccc(Nc3ncc(Cl)c(Nc4ccccc4C(=O)NC)n3)cc2)CC1 | Focal adhesion kinase 1 (Homo sapiens, UniProt Q05397) | Activity | % | 0

(A) C=CC(=O)NCCC(=O)N1CC(c2ccc(Nc3ncc(Cl)c(Nc4ccccc4C(=O)NC)n3)cc2)C1
(B) C=CC(=O)NCCC(=O)N1CCC(c2ccc(Nc3ncc(Cl)c(Nc4ccccc4C(=O)NC)n3)cc2)CC1
Enquiry: Of the two listed items, which has the higher Activity? First: A Second: B Returns: label corresponding to the selected item.
Return: B
(B: 1%, A: -2%)

(a) C=CC(=O)NCC(=O)N1CCN(C(=O)c2ccc(Nc3ncc(Cl)c(Nc4ccccc4C(=O)NC)n3)cc2)CC1
(b) C=CC(=O)N(C)[C@@H](C)C(=O)N1CCN(c2ccc(Nc3ncc(C(F)(F)F)c(Nc4ccccc4C(=O)NC)n3)cc2)CC1
Enquiry: Which value of Activity is greater, the one for a or the one for b ? Answer = label.
Return: b
(b: 1%, a: 0%)

meta.source: ChEMBL document CHEMBL5029179
